assay: Mycobacterium tuberculosis growth inhibition, primary screen (AID 1259343); conditions: at 10 µM, hits give high values
The whole screen tested about 6,200 compounds, of which about 2,900 (47%) were called active. The set was probably picked from earlier hits. Some of the results follow.
ASSAY METRIC: inhibition (%)
Write the answer as a number in %, unit excluded.

Query block: What value of inhibition has been reported for the following compound? "CN(Cc1cnccn1)c1ccc(-c2nc(-c3cccc(Cl)c3)no2)cn1"
Result block: 80.1

Query block: Name the recorded inhibition for "COc1cc(F)ccc1Oc1ccc2c(C3CC3)noc2n1" .
Result block: 47.7

Query block: Could you share which inhibition value was measured for COC(=O)c1cnc(Nc2nc(C(N)c3ccccc3Cl)cs2)nc1C(F)(F)F (centres undefined) ?
Result block: 94

Query block: Item under review: "O=P(Nc1cccc(F)c1)(Oc1ccccc1F)Oc1ccccc1F" . Reported inhibition?
Result block: 22

* * *

test: Mycobacterium tuberculosis growth inhibition, primary screen (AID 1259343); conditions: at 10 µM, hits give high values
The whole screen tested about 6,200 compounds, of which about 2,900 (47%) were called active. So high a share suggests a set chosen from earlier hits. This is one part of the list.
inhibition vs 50%: at or above is Yes, below is No.

Query block: Exam item: decide whether the reported inhibition for CC(Oc1ccc(C(N)=O)cc1)C(=O)c1ccc(Br)cc1 (configuration not stated) is at least 50%.
Result block: Yes

Query block: Decide: is the reported value of inhibition for "COc1cccc(-c2cc(C(=O)O)nc3cc(C(C)(C)C)nn23)c1" equal to or greater than 50%?
Result block: Yes

Query block: Does "CN1CCN(c2ccc3nc(-c4c(N)c5c(F)cccc5[nH]c4=O)[nH]c3c2)CC1" have a reported inhibition of at least 50%?
Result block: No

Query block: # check: inhibition of CC(C)CCNCC(O)CON=C1c2ccccc2-c2ccccc21 (configuration not stated) is greater than or equal to 50%
Result block: Yes

Query block: For this compound, is measured inhibition 50% or higher? "Cc1cccn2c(NC(C)(C)CC(C)(C)C)c(-c3cccc(OC(=O)c4cccc5ccccc45)c3)nc12"
Result block: No

Query block: Entry "CN(Cc1cc(-c2ccncc2)no1)Cc1ccc(Cl)s1" : is its inhibition no less than 50%?
Result block: Yes

Query block: # check: inhibition of "CC(C)Oc1ncc(C(=O)N2CCc3ccc(O)cc3C2)cc1Cl" is greater than or equal to 50%
Result block: No

Query block: For this compound, is measured inhibition 50% or higher? CC(Oc1ccc2cc(Br)ccc2c1)C(=O)NC(N)=O (configuration not stated)
Result block: Yes

Query block: Is inhibition for "COc1ccccc1-c1cc(C(=O)O)nc2cc(-c3ccc(Cl)cc3)nn12" at or above 50%?
Result block: No

Query block: I'd appreciate it if you could say whether "CC(C)c1ccc(-n2nnnc2SCC(N)=O)cc1" has inhibition at least equal to 50%.
Result block: No

Query block: # check: inhibition of "O=C(NCc1ccc(OC(F)F)cc1)c1cnccn1" is greater than or equal to 50%
Result block: Yes

Query block: # bool: inhibition of "Cc1ccc(C(=O)NCC2CCCCC2)c(C2CCN(C(=O)c3ccccc3)CC2)n1" >= 50%
Result block: No

Query block: For this compound, is measured inhibition 50% or higher? "Clc1ccc(-c2nn3c4cc(N5CCNCC5)ccc4nc3c3ccccc23)cc1"
Result block: Yes

Query block: Evaluate "N#Cc1ccc(Nc2ccc(OC3CCCC3)cc2)nc1" : inhibition at minimum 50%?
Result block: Yes

Query block: Hi team, for "CC(C)(C)c1cc2nc(C(=O)O)cc(-c3cccc(C(F)(F)F)c3)n2n1" , is the recorded inhibition at or above 50%?
Result block: No

Query block: Test whether the compound "Cc1ccc2nc(-c3ccccn3)c(NC(C)(C)CC(C)(C)C)n2c1" records inhibition of 50% or higher.
Result block: Yes

Query block: Evaluate "COc1ccccc1C(=O)Nc1ccc2c(c1)CN(Cc1c[nH]c3ccccc13)CC2" : inhibition at minimum 50%?
Result block: No

Query block: Reported inhibition reaches at least 50% for "C=CCOc1ccc(-c2ccc(C#N)cc2)cc1" ?
Result block: No

Query block: Test whether the compound "Oc1ccc(-c2ccc(I)cc2)cc1" records inhibition of 50% or higher.
Result block: No

Query block: Could you tell me if the measured inhibition of CCc1csc(Cn2cc(C(C)c3ccccc3)nn2)n1 (configuration not stated) reaches 50% or more?
Result block: No

Query block: Is the recorded value of inhibition equal to or greater than 50% for this compound? "CC(C)c1ccc(-n2[nH]nnc2=S)cc1"
Result block: Yes

Query block: Evaluate "O=C(Nc1ccc2c(c1)CN(C(=O)CCCc1cccs1)CC2)c1ccccn1" : inhibition at minimum 50%?
Result block: Yes

Query block: Could you please find out whether CC(C)Oc1cccc(C(=O)C2CCCN(C(=O)/C=C/c3cccs3)C2)c1 (configuration not stated) has inhibition that meets 50% or exceeds it?
Result block: No

Query block: Test whether the compound "CN(Cc1ccsc1)Cc1cc(-c2ccccc2)no1" records inhibition of 50% or higher.
Result block: Yes

Query block: Say whether "N#Cc1ccc(-c2ccc(O)cc2)cc1" shows inhibition of 50% or more.
Result block: Yes

Query block: Tell me whether inhibition is at least 50% here: "CCCc1cc(=O)[nH]c(-n2nc(C)cc2NC(=O)/C=C/c2cc(OC)c(OC)c(OC)c2)n1"
Result block: Yes

Query block: Does the reported inhibition for O=S(N1CCc2ccccc2C1)C12CC3CC(CC(C3)C1)C2 (configuration not stated) fall at or above the 50% mark?
Result block: Yes

Query block: Quick check: does "COc1ccc(CNC(=O)c2ccc(Br)cn2)cc1" have inhibition greater than or equal to 50%?
Result block: No

Query block: Please check the record "CN(Cc1ccc2nonc2c1)c1nccc(CCC(F)(F)F)n1" and state if its inhibition is at or above 50%.
Result block: No

Query block: Textbook exercise: given the entry "CC(=O)N1CCc2cc(-c3nc(COc4ccccc4)sc3C)ccc21" , state whether its inhibition is greater than or equal to 50%.
Result block: No

Query block: Would you say "O=C(NCc1ccccc1)c1coc(Br)c1" shows inhibition at minimum 50%?
Result block: No

Query block: Assess whether reported inhibition for "N#Cc1ccc(Nc2ccc(Cl)cc2)cc1" sits at 50% or higher.
Result block: No

Query block: Please check the record "COc1cccc(-c2cc(C(=O)O)nc3cc(-c4ccc(Cl)cc4)nn23)c1" and state if its inhibition is at or above 50%.
Result block: Yes

Query block: Say whether "CCCc1cc(=O)[nH]c(-n2nc(C)cc2NC(=O)/C=C/c2ccc(OC)c(OC)c2)n1" shows inhibition of 50% or more.
Result block: Yes

Query block: For this compound, is measured inhibition 50% or higher? "CCCCOC(=O)c1ccc(Nc2ncnc3c2nnn3C)cc1"
Result block: No

Query block: Does "O=C(NCc1ccc(OC(F)F)cc1)c1ccc(Cl)cc1" have a reported inhibition of at least 50%?
Result block: Yes

Query block: Could you please find out whether "Cc1nn(C(C)(C)C)c(C)c1C(=O)NCC1CCCCCCC1" has inhibition that meets 50% or exceeds it?
Result block: Yes

Query block: Decide: is the reported value of inhibition for "CN(Cc1ccc2c(c1)OCCO2)Cc1cc(-c2ccccc2)no1" equal to or greater than 50%?
Result block: No

Query block: Given Cc1ccccc1C1c2ccsc2CCN1C(C)C(=O)N1CCCN(S(=O)(=O)c2ccc(C(C)(C)C)cc2)CC1 (configuration not stated) , state whether its inhibition is at least 50%.
Result block: Yes

Query block: Textbook exercise: given the entry "Cc1oc(-c2ccccc2)nc1C(=O)NCC1CCCCC1" , state whether its inhibition is greater than or equal to 50%.
Result block: No

* * *

test: Mycobacterium tuberculosis growth inhibition, primary screen (AID 1259343); details: at 10 µM, hits give high values
Among all 6,200 compounds or so, about 2,900 (47%) were called active. So high a share suggests a set chosen from earlier hits. This is one part of the list.
Would you kindly list inhibition for each of these molecules?

Query block: What value of inhibition has been recorded for this entry: CC(NS(=O)(=O)Cc1cccc(C(F)(F)F)c1)c1cccc(Br)c1 (stereo unspecified)
Result block: 25.3% (inactive)

Query block: // inhibition lookup, key: "Cc1cc(NC(=O)c2cc(CC(C)C)on2)no1"
Result block: 47.4% (inactive)

Query block: I have this molecule here, "COc1cc(C(=O)Nc2cc(C3CC3)nn2-c2nc(C)cc(=O)[nH]2)cc(OC)c1OC" , and I need its recorded inhibition.
Result block: 101% (active)

Query block: Quick check: inhibition of "Cc1ccc(NC(=O)CNC(=O)c2ccccc2)cc1C" ?
Result block: -8.08% (inactive)

Query block: Fill blank: measured inhibition of the molecule "C=CCN(CC=C)C(=S)NC(=O)c1ccc(C)cc1" is ____.
Result block: 98.4% (active)

Query block: Suppose we examine the molecule OC1(c2ccccc2)CC(=NC2=NN(c3ccccc3)CC2)C=C1c1ccccc1 (stereo unspecified) ; what inhibition value has been reported?
Result block: 84% (active)

Query block: For the molecule Cc1nc(C)c(CN2CCCC(C(=O)Nc3ccc(-c4cccc(F)c4)cc3)C2)nc1C (stereo unspecified) , what inhibition is on record?
Result block: 90.5% (active)

Query block: Requested read-out: inhibition. Entry: CC(C)c1cc(C(=O)N2CCCC(C(=O)Nc3cccc(-c4ccc(F)cc4)c3)C2)on1 (stereo unspecified)
Result block: 83.1% (active)

Query block: Which value of inhibition has been reported for "C=CCOc1ccc(/C=N\O)cc1Cl" in the records?
Result block: 86.2% (active)

Query block: Looking for the measured inhibition of "COc1cc(C(=O)Nc2cc(C3CC3)nn2-c2nc(C)c(C)c(=O)[nH]2)cc(OC)c1OC" , can you help?
Result block: 100% (active)

Query block: Tell me the measured inhibition of "Cc1ccc(NC(=O)c2ccc(S(N)(=O)=O)c(C)c2)cc1C" , please.
Result block: 31.7% (inactive)

Query block: Report inhibition for "N#Cc1cc2c(nc1SCC(=O)OCc1ccccc1)CCC2" please.
Result block: 41.5% (inactive)

Query block: Report inhibition for "Cc1ccc(C(=O)Nc2ccccc2SCC(F)(F)F)cc1" please.
Result block: 45.2% (inactive)

Query block: Looking for the measured inhibition of "COc1ccc(C(=O)Nc2cc(C3CC3)nn2-c2nc(C)c(C)c(=O)[nH]2)c(OC)c1" , can you help?
Result block: 90% (active)

Query block: Entry under review: Cc1cccc(N2CCN(C(C)C(=O)Nc3cc(C)on3)CC2)c1 (stereo unspecified) . Reported inhibition?
Result block: 85.9% (active)

Query block: Sample "Cc1ccccc1CN1CCN2C(C(=O)Nc3ccc(-n4cccc4)cc3)=COC2=NC1=O" — what was its inhibition?
Result block: 88.2% (active)

Query block: Which inhibition value belongs to "CN(Cc1cccnc1)C(=O)c1cc(COc2ccc(F)c(F)c2)on1" ?
Result block: 60.5% (active)

Query block: I am curious: what inhibition value has been reported for "Cc1ccc(OCc2cc(C(=O)NCc3nc4ccccc4s3)no2)cc1C" ?
Result block: 92.1% (active)

Query block: So what does the record say about inhibition for O=C(NNc1ccccc1)C(O)C(O)C(=O)NNc1ccccc1 (stereo unspecified) ?
Result block: 83.3% (active)

Query block: Name the recorded inhibition for CC(C)(C)C1CCc2c(C(=O)N/N=C\c3ccoc3)csc2C1 (stereo unspecified) .
Result block: 79.8% (active)

Query block: // returns reported inhibition for input O=C(Nc1cccc(-c2ccc(F)cc2)c1)C1CCCN(C2CCSCC2)C1 (stereo unspecified)
Result block: 86.7% (active)
